The reported measurements were obtained from patent US20140212487A1.

Assay: Solubility of ledipasvir in spray dry feed solvents
Assay type: physicochemical
Settings: dichloromethane (DCM), organic solvent or mixture
Measured Parameter: solubility

Asked: Please look at this compound and report its solubility: COC(=O)N[C@H](C(=O)N1CC2(CC2)C[C@H]1c1ncc(-c2ccc3c(c2)C(F)(F)c2cc(-c4ccc5nc([C@@H]6[C@H]7CC[C@H](C7)N6C(=O)[C@@H](NC(=O)OC)C(C)C)[nH]c5c4)ccc2-3)[nH]1)C(C)C [Ledipasvir]
Given back: > 500 mg/mL

###

Assay: clinical
Conditions: in vivo, po, 30 mg, AUCinf, Geometric Least Squares Mean (GLSM), conventional formulation, fed
Measured Parameter: AUC(0-inf)

Asked: Please look at this compound and report its AUC(0-inf): COC(=O)N[C@H](C(=O)N1CC2(CC2)C[C@H]1c1ncc(-c2ccc3c(c2)C(F)(F)c2cc(-c4ccc5nc([C@@H]6[C@H]7CC[C@H](C7)N6C(=O)[C@@H](NC(=O)OC)C(C)C)[nH]c5c4)ccc2-3)[nH]1)C(C)C [Ledipasvir]
Given back: 1140 ng·h/mL
